- TARGET_OR_TEST_SYSTEM: T1, 4H454-bH
- T1 chain: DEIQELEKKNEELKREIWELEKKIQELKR
- PROTOCOL_NOTES: two-hybrid library CCNG1;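 further: natural log of median RNA to DNA barcode read ratio; higher means stronger binding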

BINDER: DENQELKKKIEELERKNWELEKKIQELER [4H1845-bH]
interaction score: -0.0899
--
BINDER: DEIQELEKKIEELKRENWELEKEIQELKR [4H338-bH]
interaction score: 1.38
--
BINDER: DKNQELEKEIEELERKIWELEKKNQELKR [4H3112-bH]
interaction score: 0.624
--
BINDER: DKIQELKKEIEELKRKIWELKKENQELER [4H2667-bH]
interaction score: 0.0385
--
BINDER: DEIQELEKKNEELKREIWELEKKIQELKR [4H454-bH]
interaction score: 1.6
--
BINDER: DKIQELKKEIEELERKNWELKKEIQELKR [4H2618-bH]
interaction score: 1.16
--
BINDER: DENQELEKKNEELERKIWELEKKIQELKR [4H1446-bH]
interaction score: 0.981
--
BINDER: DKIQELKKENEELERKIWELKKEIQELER [4H2729-bH]
interaction score: 1.36
--
BINDER: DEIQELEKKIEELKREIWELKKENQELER [4H331-bH]
interaction score: -0.0612
--
BINDER: DKNQELKKKIEELEREIWELKKKNQELER [4H3855-bH]
interaction score: 0.744
--
BINDER: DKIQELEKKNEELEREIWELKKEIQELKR [4H2442-bH]
interaction score: 1.64
--
BINDER: DKNQELEKKIEELERENWELKKEIQELKR [4H3354-bH]
interaction score: 0.274
--
BINDER: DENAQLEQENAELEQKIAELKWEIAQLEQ [4H1193-bA]
interaction score: 0.453
--
BINDER: DKNQELKKKNEELERKIWELEKEIQELER [4H4001-bH]
interaction score: 1.29
